Tested on: ALL-PO
assay: selective drug sensitivity score (sDSS, relative to normal bone marrow) (sDSS (score)); higher = more potent and effective on the cell line relative to normal bone marrow cells;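 note: ALL cell lines in 384-well plates, five doses spanning 10,000-fold, each plate scaled between vehicle and 100 µmol/L benzalkonium chloride controls, sDSS an adapted area-under-curve metric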
measurement setup: 72 h
Decision: selective drug sensitivity score >= 5 yields y, all other cases yield n.

Take a look at these entries with their results.
[
  {
    "compound": "C[C@]1(O)C[C@@H](c2nc(-c3ccc4ccc(-c5ccccc5)nc4c3)c3c(N)nccn32)C1 [Linsitinib] (top concentration 10000 nM)",
    "group": "n"
  },
  {
    "compound": "Nc1ccccc1NC(=O)c1ccc(CNc2nccc(-c3cccnc3)n2)cc1 [Mocetinostat] (top concentration 10000 nM)",
    "group": "y"
  },
  {
    "compound": "COc1cc(Nc2ncc(F)c(Nc3ccc4c(n3)NC(=O)C(C)(C)O4)n2)cc(OC)c1OC [Tamatinib] (top concentration 10000 nM)",
    "group": "y"
  },
  {
    "compound": "CN(c1ncccc1CNc1nc(Nc2ccc3c(c2)CC(=O)N3)ncc1C(F)(F)F)S(C)(=O)=O (top concentration 10000 nM)",
    "group": "y"
  },
  {
    "compound": "C=CC(=O)Nc1cccc(Nc2nc(Nc3ccc(N4CCN(C(C)=O)CC4)cc3OC)ncc2C(F)(F)F)c1 [Rociletinib] (top concentration 10000 nM)",
    "group": "y"
  }
]

Threshold query (selective drug sensitivity score >= 5) on Nc1ccn([C@@H]2O[C@H](CO)[C@@H](O)C2(F)F)c(=O)n1 [Gemcitabine] (top concentration 1000 nM) y

selective drug sensitivity score >= 5 for Cc1c(-c2c(-c3ccc(F)o3)sc3ncnc(O[C@H](Cc4ccccc4OCc4ccnn4CC(F)(F)F)C(=O)O)c23)ccc(OCCN2CCN(C)CC2)c1Cl (top concentration 1000 nM) ? n

Entry CC[C@@H]1C(=O)OC[C@@H]1Cc1cncn1C [Pilocarpine] (top concentration 40000 nM) : is its selective drug sensitivity score no less than 5? n

Textbook exercise: given the entry Clc1ccc(C(c2ccccc2Cl)C(Cl)Cl)cc1 (stereo not drawn) [Mitotane] (top concentration 10000 nM) , state whether its selective drug sensitivity score is greater than or equal to 5. n

Kindly determine if selective drug sensitivity score recorded for CCN(CCO)CCCOc1ccc2c(Nc3cc(CC(=O)Nc4cccc(F)c4)[nH]n3)ncnc2c1 [AZD1152-HQPA] (top concentration 1000 nM) is above or exactly 5. y

---

Tested on: KARPAS-45
assay: selective drug sensitivity score (sDSS, relative to normal bone marrow) (sDSS (score)); higher = more potent and effective on the cell line relative to normal bone marrow cells
measurement setup: 72 h
Threshold rule: selective drug sensitivity score greater than or equal to -0.2 is true; below that, false.

// known answers, use as guide
[
  {
    "molecule": "Cc1cc(Nc2nc(N[C@@H](C)c3ncc(F)cn3)ncc2Cl)[nH]n1 [AZD1480] (top concentration 1000 nM)",
    "group": "true"
  },
  {
    "molecule": "Cc1ccc(-n2nc(C(C)(C)C)cc2NC(=O)Nc2ccc(OCCN3CCOCC3)c3ccccc23)cc1 [Doramapimod] (top concentration 10000 nM)",
    "group": "false"
  },
  {
    "molecule": "Cn1cnc2c(F)c(Nc3ccc(Br)cc3Cl)c(C(=O)NOCCO)cc21 [Selumetinib] (top concentration 10000 nM)",
    "group": "false"
  },
  {
    "molecule": "O=c1ncn2nc(Sc3ccc(F)cc3F)ccc2c1-c1c(Cl)cccc1Cl [Neflamapimod] (top concentration 10000 nM)",
    "group": "true"
  },
  {
    "molecule": "O=c1[nH]c(=O)n([C@H]2C[C@H](O)[C@@H](CO)O2)cc1C(F)(F)F [Trifluridine] (top concentration 10000 nM)",
    "group": "false"
  }
]

Continue with the next molecule.
# check: selective drug sensitivity score of c1cn2cc(-c3ccc4cn[nH]c4c3)nc(Nc3ccc(N4CCOCC4)cc3)c2n1 [Entospletinib] (top concentration 5000 nM) is greater than or equal to -0.2 false
